assayRemarks: in vivo
condition: male, beagle, dog, in vivo, po, 5 mg/kg
measureName: AUC(0-t) (µM·h)
Write the number in µM·h without appending the unit.

# input Provide one value: measured AUC(0-t) of `C[C@H](Cn1cnc2c(N)ncnc21)OCP(=O)(O)O`
# output 1.6

---

assayRemarks: in vivo
condition: male, beagle, dog, in vivo, po, 5 mg/kg, AUC0-inf
measureName: AUC(0-inf) (µM·h)
Write the number in µM·h without appending the unit.

# input Provide one value: measured AUC(0-inf) of C[C@H](Cn1cnc2c(N)ncnc21)OCP(=O)(O)O [TFV, Tenofovir]
# output 2.92

---

assayRemarks: Oral pharmacokinetics of TAF alone or in combination with dolutegravir in male beagle dogs (plasma, LC/MS)
condition: male, beagle, dog, in vivo, po, 5 mg/kg, Tmax, TAF in plasma, Day 1, TAF 5 mg/kg oral alone, fasted male beagle dogs, mean n=6
Procedure: TAF was dosed at 5 mg/kg (as free base) orally in solution to fasted male beagle dogs (N=6 animals, mean weight 10 kg). On Day 1, TAF was administered alone. On days 2, 3, 4 and 5, 3 mg/kg of Dolutegravir (DTG) was administered alone (as free acid). Both compounds were administered on Day 6. The plasma pharmacokinetic profiles of TAF and its nucleotide metabolite tenofovir (TFV) were determined by LC/MS in samples taken on Day 1 and Day 6 of dosing. […]
measureName: Tmax (min)
Write the number in min without appending the unit.

# input Provide one value: measured Tmax of CC(C)OC(=O)[C@H](C)N[P@](=O)(CO[C@H](C)Cn1cnc2c(N)ncnc21)Oc1ccccc1 [TAF]
# output 17.4

---

assayRemarks: Oral pharmacokinetics of TAF alone or in combination with dolutegravir in male beagle dogs (plasma, LC/MS)
condition: male, beagle, dog, in vivo, po, 5 mg/kg, Cmax, TAF in plasma, Day 6, TAF 5 mg/kg oral co-administered with DTG 3 mg/kg after 4 daily doses of DTG, male beagle dogs, mean n=6
measureName: Cmax

# input Provide one value: measured Cmax of `CC(C)OC(=O)[C@H](C)N[P@](=O)(CO[C@H](C)Cn1cnc2c(N)ncnc21)Oc1ccccc1`
# output 818 nM

---

assayRemarks: Oral pharmacokinetics of TAF alone or in combination with dolutegravir in male beagle dogs (plasma, LC/MS)
condition: male, beagle, dog, in vivo, po, 5 mg/kg, Tmax, TAF in plasma, Day 6, TAF 5 mg/kg oral co-administered with DTG 3 mg/kg after 4 daily doses of DTG, male beagle dogs, mean n=6
measureName: Tmax (min)
Write the number in min without appending the unit.

# input Provide one value: measured Tmax of `CC(C)OC(=O)[C@H](C)N[P@](=O)(CO[C@H](C)Cn1cnc2c(N)ncnc21)Oc1ccccc1`
# output 15

---

assayRemarks: Oral pharmacokinetics of TAF alone or in combination with dolutegravir in male beagle dogs (plasma, LC/MS)
condition: male, beagle, dog, in vivo, po, 5 mg/kg, T1/2 (estimated terminal elimination half-life), TAF in plasma, Day 1, TAF 5 mg/kg oral alone, fasted male beagle dogs, mean n=6
measureName: half-life
Param answer (str): number followed by unit.

# input Provide one value: measured half-life of CC(C)OC(=O)[C@H](C)N[P@](=O)(CO[C@H](C)Cn1cnc2c(N)ncnc21)Oc1ccccc1 [TAF]
# output 11.4 min

---

assayRemarks: in vivo
condition: male, beagle, dog, in vivo, po, 5 mg/kg, Tmax
measureName: Tmax (h)
Write the number in h without appending the unit.

# input Provide one value: measured Tmax of `C[C@H](Cn1cnc2c(N)ncnc21)OCP(=O)(O)O`
# output 1.25
